Test system: U2OS
Assay: cell viability relative to DMSO; higher = less toxic
Conditions: 72 h; 10000 nM
List of cell viability values.
Give just the numeric value; % need not be written.

Example entries and their recorded answers appear below.
- molecule: "O=C(O)C(O)Cc1ccc(O)c(O)c1 (stereo not drawn) [sodium-danshensu]"
  valueObserved: 87.7
- molecule: "N#Cc1cc(CN2CCC(Nc3ncnc4sc(Cl)cc34)CC2)ccc1F"
  valueObserved: 89.1

# evaluate next
Memo: CCC(COC(=O)c1cc(OC)c(OC)c(OC)c1)(c1ccccc1)N(C)C (stereo not drawn) [trimebutine] , reported cell viability: 92.6
